System: Streptococcus parauberis (DSM 6631)
Type: cell-based
conditions: DSM 6631, 24 h
Ends that are not written are not given here.
readout-name: MIC (µM)

1. LIGSLFRGAKAIFRGARQGWRAHKAVSRYRAGYVRRPVVYYHRVYP-NH2 [Piscidin5]    1.3
2. FLGRFFRRTQAILRGARQGWRAHKAVSRYRDRYIPETDNNQEQP-NH2 [Piscidin2]    6.9
3. FIHHIFRGIINAGKSIGRFITG-NH2 [Piscidin4]    1.8
4. FFHHIFRGIVHVGKTIHRLVTG-NH2 [Piscidin1]    2.4
